Molecular target: Muscarinic acetylcholine receptor M5 (Homo sapiens)
Sequence (P08912 whole entry): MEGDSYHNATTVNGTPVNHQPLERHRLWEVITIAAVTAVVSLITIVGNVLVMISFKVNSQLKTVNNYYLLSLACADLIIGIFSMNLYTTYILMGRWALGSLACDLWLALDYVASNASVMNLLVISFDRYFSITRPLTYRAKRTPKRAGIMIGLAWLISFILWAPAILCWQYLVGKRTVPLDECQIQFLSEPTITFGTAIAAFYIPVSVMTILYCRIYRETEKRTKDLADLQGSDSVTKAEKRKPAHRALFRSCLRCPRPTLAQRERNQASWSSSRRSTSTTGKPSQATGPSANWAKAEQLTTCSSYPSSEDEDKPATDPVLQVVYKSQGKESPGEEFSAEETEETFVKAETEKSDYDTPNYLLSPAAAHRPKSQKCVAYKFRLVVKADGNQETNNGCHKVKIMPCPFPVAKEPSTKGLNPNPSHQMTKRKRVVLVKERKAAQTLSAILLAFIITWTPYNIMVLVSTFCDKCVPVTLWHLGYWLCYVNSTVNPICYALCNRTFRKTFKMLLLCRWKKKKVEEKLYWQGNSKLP
Test: Agonist activity at human muscarinic M5 receptor expressed in CHO cells
parameter: EC50 (µM)
Numbers only, in µM.

- compound: "CC1COCC(C[N+](C)(C)C)O1 (configuration not stated)"
  assayed.target: "Muscarinic acetylcholine receptor M5 (Homo sapiens)"
  measure.unit: "µM"
  EC50: 7.94

Memo: C[C@H]1COC[C@@H](C[N+](C)(C)C)O1 , reported EC50: 3.71

====

Molecular target: Muscarinic acetylcholine receptor M2 (Homo sapiens)
Sequence (P08172 whole entry): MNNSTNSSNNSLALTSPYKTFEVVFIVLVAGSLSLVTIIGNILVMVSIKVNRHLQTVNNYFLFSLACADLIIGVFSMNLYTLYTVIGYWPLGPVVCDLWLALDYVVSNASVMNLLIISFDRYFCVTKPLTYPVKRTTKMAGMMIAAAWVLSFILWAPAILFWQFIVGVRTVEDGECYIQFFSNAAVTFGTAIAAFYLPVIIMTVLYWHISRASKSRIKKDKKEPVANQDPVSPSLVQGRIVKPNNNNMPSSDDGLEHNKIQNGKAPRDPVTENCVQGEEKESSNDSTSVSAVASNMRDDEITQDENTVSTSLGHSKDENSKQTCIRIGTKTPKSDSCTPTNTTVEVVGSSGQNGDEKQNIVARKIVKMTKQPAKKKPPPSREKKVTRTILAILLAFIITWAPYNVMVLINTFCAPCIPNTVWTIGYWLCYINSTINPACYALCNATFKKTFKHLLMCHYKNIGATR
Assay: Agonist activity at human muscarinic M2 receptor expressed in CHO cells
For each entry below, report its EC50 value.
Give bare numbers, in µM.

- substance.smiles: "C[C@H]1COC[C@@H](C[N+](C)(C)C)O1"
  assayed.target: "Muscarinic acetylcholine receptor M2 (Homo sapiens)"
  EC50 / µM: 37.1

Turning to the following compound.
// C[C@@H]1COC[C@H](C[N+](C)(C)C)O1 : EC50 value = 15.4

Value source: BindingDB's records for doi:10.1016/j.bmc.2006.10.040
